Reference source for all entries: PubChem BioAssay AID1117324

System: VEGF-stimulated ADSC/ECFC co-culture, nuclear area imaging
assay remarks: nuclear area loss in endothelial-stromal co-culture, dose response, cell-based, VEGF stimulation, IC50 (AID 1117324)
The source made the active and inactive calls. How the calls were made is not given here.
Measured IC50 values are reported for all entries that follow.

These solved cases illustrate the format of a correct answer.
| compound | recorded endpoint | obs value |
| --- | --- | --- |
| CC(C)OC(=O)OCOP(=O)(CO[C@H](C)Cn1cnc2c(N)ncnc21)OCOC(=O)OC(C)C | IC50 | > 10 µM (inactive) |
| CN[C@@H]1C[C@@H](c2ccc(Cl)c(Cl)c2)c2ccccc21 | IC50 | > 10 µM (inactive) |
| COCCOC(=O)C1=C(C)NC(C)=C(C(=O)OC/C=C/c2ccccc2)C1c1cccc([N+](=O)[O-])c1 (stereo not given) | IC50 | > 10 µM (inactive) |
| O=NN(CCCl)C(=O)NC1CCCCC1 | IC50 | > 10 µM (inactive) |
| O=c1[nH]c(=O)n([C@H]2C[C@H](O)[C@@H](CO)O2)cc1Br | IC50 | > 10 µM (inactive) |
| CC1(C)[C@H](C=C(Cl)Cl)[C@@H]1C(=O)OCc1c(F)c(F)cc(F)c1F | IC50 | > 10 µM (inactive) |
| CN(Cc1cnc2nc(N)nc(N)c2n1)c1ccc(C(=O)N[C@@H](CCC(=O)O)C(=O)O)cc1 | IC50 | > 10 µM (inactive) |
| COC(=O)c1nc(Cl)c(Cl)nc1N | IC50 | 6.8 µM (inactive) |
| CC1=C(/C=C/C(C)=C/C=C/C(C)=C/C(=O)Nc2ccc(O)cc2)C(C)(C)CCC1 | IC50 | 6.24 µM (inactive) |

Q: Answer with reported IC50 of CCOP(=S)(OCC)SCSc1ccc(Cl)cc1
A: > 10 µM (inactive)

###

System: VEGF-stimulated ADSC/ECFC co-culture, nuclear area imaging
assay remarks: nuclear area loss in endothelial-stromal co-culture, dose response, cell-based, VEGF stimulation, IC50 (AID 1117324)
Activity calls are given as the source filed them. No rule for the calls is given here.
Give your call using only these classes: active, inactive

| compound | qualitative label |
| --- | --- |
| CC[C@]12CCCN3CCc4c(n(c5ccccc45)C(=O)C1)[C@@H]32 | inactive |
| O=C1NCCN1CCN1CCC(c2cn(-c3ccc(F)cc3)c3ccc(Cl)cc23)CC1 | inactive |
| O=[N+]([O-])c1cc(I)c(O)c(I)c1 | inactive |
| C[C@]12CC[C@@H]3c4ccc(O)cc4CC[C@H]3[C@@H]1CC[C@@H]2OC(=O)CCC1CCCC1 | inactive |
| COCc1c(C(C)C)nc(C(C)C)c(/C=C/[C@@H](O)C[C@@H](O)CC(=O)O)c1-c1ccc(F)cc1 | active |
| O=C(Nc1ccc(S(=O)(=O)N2CCOCC2)cc1)c1cc(Cl)ccc1NS(=O)(=O)c1ccc(Cl)s1 | inactive |
| Cc1cc(-c2ccc(N=Nc3c(S(=O)(=O)O)cc4cc(S(=O)(=O)O)cc(N)c4c3O)c(C)c2)ccc1N=Nc1c(S(=O)(=O)O)cc2cc(S(=O)(=O)O)cc(N)c2c1O | inactive |
| CCCCC(CC)CN=C(N)NC(N)=NCCCCCCN=C(N)NC(N)=NCC(CC)CCCC (centres undefined) | inactive |
| CC(C)C[C@H](NC(=O)[C@H](CCc1ccccc1)NC(=O)CN1CCOCC1)C(=O)N[C@@H](Cc1ccccc1)C(=O)N[C@@H](CC(C)C)C(=O)[C@@]1(C)CO1 | active |
| CCOC(=O)NC(C)(C)Cc1ccc(Cl)cc1 | inactive |

Q: Hello, I am checking results. What call was entered for CC(C)=CCNc1ncnc2c1ncn2[C@@H]1O[C@H](CO)[C@@H](O)[C@H]1O ?
A: inactive

Q: Any idea what this test logged for COc1cc(C=C2CCC/C(=C\c3ccc(O)c(OC)c3)C2=O)ccc1O ?
A: inactive

Q: Test call, this compound: CCCSc1ccc2nc(NC(=O)OC)[nH]c2c1
A: inactive

Q: Fill in: this test's call for C/C(=N\O)[C@@H](C)NCC(C)(C)CN[C@H](C)/C(C)=N/O is ___
A: inactive

###

Test system: VEGF-stimulated ADSC/ECFC co-culture, nuclear area imaging
assay remarks: nuclear area loss in endothelial-stromal co-culture, dose response, cell-based, VEGF stimulation, IC50 (AID 1117324)
Activity calls are given as the source filed them. How the calls were made is not given here.
Here, each record is paired with measured IC50 data.

Q: Answer with reported IC50 of Oc1c(Br)cc(Br)c2cccnc12
A: > 10 µM (inactive)

Q: Provide measured IC50 value, entry: O=C(CCl)c1ccc(Cl)cc1Cl
A: 6.17 µM (inactive)

Q: Give the value of IC50 reported for the following: C/C(=C(/OCCOc1ccc(Cl)cc1)c1ccc(Cl)cc1Cl)n1ccnc1
A: 9.42 µM (inactive)

Q: Give recorded IC50. Cc1cc(O)c2c(O)c3c(O)cccc3cc2c1
A: > 10 µM (inactive)

Q: Answer with the recorded IC50 for the molecule listed here: COc1cc(NCc2ccc3nc(N)nc(N)c3c2C)cc(OC)c1OC
A: > 10 µM (inactive)

Q: Tell me measured IC50 for CCCCCCOC(=O)c1cccnc1 please.
A: > 10 µM (inactive)

Q: Give the measured IC50 for Cc1cccc(C)c1NC(=O)CC12CCCN1CCC2
A: > 10 µM (inactive)

Q: For the molecule CC(CC=O)CCCC(C)(C)O (stereo not drawn) , report IC50.
A: > 10 µM (inactive)

###

System: VEGF-stimulated ADSC/ECFC co-culture, nuclear area imaging
assay remarks: nuclear area loss in endothelial-stromal co-culture, dose response, cell-based, VEGF stimulation, IC50 (AID 1117324)
Activity calls are given as the source filed them. The rule behind the calls is not given here. *1 amine or outer side, *2 acyl side, *3 side chain or, on linkers, in order; H or OH if unused. Where a SMILES comes first, the peptide text is derived from it. Bridges are numbered along the chain shown (N, C = ends). Roman numbers before positions name the chains, in order. [ ]: non-standard residue; d: D form. Actinocin(9to1) = Cc1c2oc3c(C)ccc(C(=O)[*:1])c3nc-2c(C(=O)[*:2])c(N)c1=O; NMeV = CN[C@H](C(=O)O)C(C)C; Sar = CNCC(=O)O
Respond only with the outcome that fits, drawn from active, inactive

Below are worked cases with known answers.
| compound | qualitative label |
| --- | --- |
| O=C1C(I)=CC(=C(c2cc(I)c(O)c(I)c2)c2ccccc2C(=O)O)C=C1I | inactive |
| CC[C@@H]([C@H](C)O)n1ncn(-c2ccc(N3CCN(c4ccc(OC[C@@H]5CO[C@@](Cn6cncn6)(c6ccc(F)cc6F)C5)cc4)CC3)cc2)c1=O | inactive |
| Cc1c2oc3c(C)ccc(C(=O)N[C@@H]4C(=O)N[C@H](C(C)C)C(=O)N5CCC[C@H]5C(=O)N(C)CC(=O)N(C)[C@@H](C(C)C)C(=O)O[C@@H]4C)c3nc-2c(C(=O)N[C@@H]2C(=O)N[C@H](C(C)C)C(=O)N3CCC[C@H]3C(=O)N(C)CC(=O)N(C)[C@@H](C(C)C)C(=O)O[C@@H]2C)c(N)c1=O (I: T[dV]P[Sar][NMeV] / II: T[dV]P[Sar][NMeV]; ester I:1-I:C, II:1-II:C; linker I:N-II:N via Actinocin(9to1)) | active |
| Cc1c(C)c2c(c(C)c1O)CC[C@@](C)(CCC[C@H](C)CCC[C@H](C)CCCC(C)C)O2 | inactive |
| CC(COc1ccccc1)NN (stereo not given) | inactive |

Q: Recorded test call requested for CCOC(=O)C1=C(C)NC(C)=C(C(=O)OCC)C1c1ccccc1/C=C/C(=O)OC(C)(C)C
A: inactive

Q: Assay outcome for C=CC(C)(O)CCC=C(C)CCC=C(C)C (stereo not given) : what was it?
A: inactive

Q: Kindly provide the recorded test outcome for the following compound: Cc1cccc(C)c1NC(=O)CN1CCN(CCCC(c2ccc(F)cc2)c2ccc(F)cc2)CC1
A: inactive

Q: # outcome recorded in this test, key = CCC1Nc2cc(Cl)c(S(N)(=O)=O)cc2S(=O)(=O)N1 (stereo not given)
A: inactive

Q: Status in this test for COc1ccc([C@@H]2Sc3ccccc3NC(=O)[C@@H]2O)cc1 ?
A: inactive

Q: Test call for this compound, please: CCCCC1C(=O)N(c2ccccc2)N(c2ccc(O)cc2)C1=O (stereo not given)
A: inactive

Q: Which result was noted for this compound in the test: CCCCCCCC[N+](C)(C)CCCCCCCC
A: inactive

Q: Write down the call the test reported for this compound. Item: O=c1c(-c2ccc(O)cc2)coc2cc(O)cc(O)c12
A: inactive

Q: Please share the test call associated with NCCNc1ccc(NCCN)c2c1C(=O)c1ccncc1C2=O .
A: inactive

Q: Can you look up the reported call for COC(=O)CCCCC(CCSS/C(CCO)=C(\C)N(C=O)Cc1cnc(C)nc1N)SC(C)=O (stereo not given) for me?
A: inactive
